- TGT: UPR counterscreen luciferase reporter, luminescence
- EXPERIMENT_SUMMARY: luciferase reporter activation, UPR counterscreen line – cell-based, luminescence, counter-screen for adaptive UPR activator project, dose response (AID 489027)
Active and inactive are the calls of the source. No rule for the calls is given here.
Could you please pick one outcome from this set? y (active), n (inactive)

Could you check what this test reported for CCCn1c(SCc2nc3sc(C)c(C)c3c(=O)[nH]2)nc2ccccc2c1=O ?
n

Tell me the recorded outcome of this test for Cn1nc(C(F)(F)F)c(/C=N/OC(=O)c2ccccc2Cl)c1SCc1ccccc1Cl .
n

Status in this test for COc1cc(/C=C2/C(=N)N3C=CSC3=NC2=O)ccc1OCCCOc1cc(C)ccc1C ?
n

// return assay outcome for COc1ccc(/C=N/NC(=O)c2cccc([N+](=O)[O-])c2)c2ccccc12
n

Assay result, entry N#Cc1ccccc1/C=N/Nc1nc(-c2ccccc2)c2cc(Cl)ccc2n1 — outcome?
y

Which result was noted for this molecule in the test: Nc1nc(Nc2ccccc2)nc(NC2CCCCC2)c1[N+](=O)[O-]
n

Which outcome was entered for the molecule Cc1nc2cc(NC(=O)CSc3nc4c(C)cccc4cc3C#N)ccc2s1 in this test?
n

I'd appreciate the recorded outcome for CC(C)=CCCC1(C)C=Cc2c(c(C)cc3c2[nH]c2cc(O)ccc23)O1 (stereo unspecified) from this test.
n

Write down the call the test reported for this molecule. Item: Nc1nc(Nc2cccc(F)c2)nc2ccccc12
n

Could you kindly confirm the outcome this assay logged for Cc1ccc(NC(=O)c2cc(S(=O)(=O)N(C)C)ccc2N2CCCC2)cc1S(=O)(=O)N(C)C ?
y

Recorded test outcome, item N#Cc1cnn2c1nc(N1CCCCC1)c1ccccc12
n

Write down the call the test reported for this molecule. Item: O=C(NCc1ccccc1Br)c1cccc2c1C(=O)c1ccc(-c3ccc(OC(F)(F)F)cc3)cc1S2(=O)=O
y

Hello, I am checking results. What call was entered for CCOC(=O)c1nnc(-c2ccc(C)cc2)nc1Sc1cccc(Cl)c1 ?
n

So what was the verdict on O=C(Nc1nc2ccccc2s1)c1cc2c(s1)-c1ccccc1OC2 in this test?
n

// return assay outcome for O=C(NCc1ccccc1Cl)c1cccc2c1C(=O)c1ccc(-c3ccc(OC(F)(F)F)cc3)cc1S2(=O)=O
y

Can you look up the reported call for O=C(N/N=C/c1ccc(O)c(O)c1)c1ccc(CSc2cccc3cccnc23)cc1 for me?
y

Write down the call the test reported for this molecule. Item: CCN(CC)c1ccc(C(=O)OCC(=O)Nc2cc3oc4ccccc4c3cc2OC)cc1
y

What did this assay record as the result for CC(C)CN=C(NS(=O)(=O)c1ccccc1)C(Cl)(Cl)Cl ?
y

For this molecule, state the assay outcome: CCCOC(=O)c1cccc(Nc2nc(-c3cccnc3)nc3ccccc23)c1
n

Please indicate how the test categorized CCCCCCCCCCOC(=O)Cn1c(COc2ccccc2C)[n+](C)c2ccccc21 .
n

How was CC1=CC(C)[C@H](/C=N/n2c(=O)[nH]c3c([nH]c4ccc(Br)cc43)c2=O)C(C)C1 (stereo partly specified) classified in this test?
n

---

- TGT: UPR counterscreen luciferase reporter, luminescence
- EXPERIMENT_SUMMARY: luciferase reporter activation, UPR counterscreen line – cell-based, luminescence, counter-screen for adaptive UPR activator project, dose response (AID 489027)
Active and inactive are the calls of the source. No rule for the calls is given here.
Choose the fitting class; nothing outside TRUE = active, FALSE = inactive is accepted.

Which result was noted for this molecule in the test: Cc1ccc(-n2nc3c(N4CCC(C(=O)NCCc5ccccc5C)CC4)nnc(C)c3c2C)cc1
FALSE

Please let me know the test result on file for N#CCC(=O)N/N=C/c1cn(Cc2ccc3ccccc3c2)c2ccccc12 .
TRUE

Answer briefly: the call reported for COc1c(Cl)cc(Cl)cc1/C=N/NC(=O)c1nnn(-c2nonc2N)c1CN1CCC(C)CC1 in this assay.
FALSE

Please indicate how the test categorized O=[N+]([O-])c1ccc(N/N=C/c2ccc(OCc3cccc4ccccc34)cc2)nc1 .
FALSE

Tell me the recorded outcome of this test for COc1ccc(Cc2nnc(N/N=C/c3ccc(N(C)C)cc3)[nH]c2=O)cc1OC .
FALSE

Name the outcome recorded for CCOC(=O)c1nnc(-c2ccc(C)cc2)nc1Oc1ccc(Cl)cc1Cl in the assay.
TRUE

Give the logged outcome of this assay for the following molecule: COc1ccccc1-c1cc(-c2ccccc2)nc(SC(C(N)=O)c2ccccc2)c1C#N (stereo not given)
FALSE

For this molecule, state the assay outcome: CC(C)(C)c1cc(-c2nc(N)nc(N)n2)c(O)c(C(C)(C)C)c1
FALSE

Call for entry O=C1NC(=O)C(=Cc2cn(CCOc3ccc4c(c3)OCO4)c3ccccc23)C(=O)N1 :
TRUE

Hi team, can someone confirm the assay call for CC(=O)Oc1ccc(-c2ccc(C(=O)OCC(=O)N(C)CC(=O)Nc3ccccc3Cl)cc2)cc1 ?
TRUE
